For each record, write down the corresponding apparent Kd.
system: MS2 coat protein; assay: apparent Kd, MS2 coat protein; higher = weaker binding; RNA-MaP array; theophylline 2 mM where present; details: ligand present: theophylline; designed as: ON switch for theophylline

Exercise: What value of apparent Kd has been reported for the following sequence? UCGUGUAUAACGGAUACCAGUGAGAAGGAUACAUGAGGAUCACCCAUGUGAGUUGAUCCACACCCUUGGCAGCUGUAUAUAUCUA
Key: 1100 nM

Exercise: What value of apparent Kd has been reported for the following sequence? UUAGAUAUGACGGAUACCAGCGUGUUGUAGAACAUGAGGAUCACCCAUGUAGUGAUCGUGCGCCCUUGGCAGCUGGUAUGUUUGG
Key: 898 nM

Exercise: What value of apparent Kd has been reported for the following sequence? ACAUGAGGAUCACCCAUGUCUGCCACUGAUACCAGCGGAUGCCAACGCCCUUGGCAGCAGAACAUGAGGAUCACCCAUGUAGGCA
Key: 209 nM

Exercise: What value of apparent Kd has been reported for the following sequence? AUCGUACCUGAUGAUACCAGCAAUUGCUCGUAACAUGAGGAUCACCCAUGUGACCAGUGAUGCCCUUGGCAGCAUGGUCGGUGCA
Key: 38.5 nM

Exercise: What value of apparent Kd has been reported for the following sequence? AAGGUGAUCCGUGAUACCAGCUCAACAUGAGGAUCACCCAUGUAAGCCUGGAAACAGGCGAGCCCUUGGCAGCACGGUAAUAAUA
Key: 13.8 nM

Exercise: What value of apparent Kd has been reported for the following sequence? UAUAAAAUAACAGAUACCAGCGUGUUAUAAAACAUGAGGAUCACCCAUGUAGUGAUCAAGCGCCCUUGGCAGCUGGUAUUUUAUG
Key: 133 nM

Exercise: What value of apparent Kd has been reported for the following sequence? UUCUACAUGAGGAUCACCCAUGUGGGUGAUACCAGCACUUUUUGGUGCCCUUGGCAGCACAUGAGAAUGCCGUAAAAUCGGCGAU
Key: 500 nM

Exercise: What value of apparent Kd has been reported for the following sequence? AAUAACAUGAGGAUCACCCAUGUAAAAGAUACCAGAUGCAUGAUGAUCCCUUGGCAGCUUAAACGCGAUUGGAAACAAUCGCGAA
Key: 148 nM

Exercise: What value of apparent Kd has been reported for the following sequence? AAGGUGAUCCCAGAUACCAGCUUAACAUGAGGAUCACCCAUGUUUGGGACGAAAGUCCCGGGCCCUUGGCAGCUGGGUUGCCAAG
Key: 131 nM

----------
For each record, write down the corresponding apparent Kd.
test system: MS2 coat protein; experiment: apparent Kd, MS2 coat protein; higher = weaker binding; RNA-MaP array; settings: ligand present: flavin mononucleotide; designed as: OFF switch for flavin mononucleotide
// return numeric value only (unit: nM, not printed)

Exercise: # value lookup — system MS2 coat protein, readout apparent Kd, item AACAAGGACAGAGGAUAUAUCAACAUUGAAGUAAUAGAAGGCUGAGAGAAUGAGACUCAUAAACAUGAGGAUCACCCAUGUAAC
Key: 81.4

Exercise: # value lookup — system MS2 coat protein, readout apparent Kd, item AAUCCUAAUGUCAGGAUAUUGCAGAAGCCAGAACACAAGAAGGGACAUGAGGAUCACCCAUGUAUAGUCACAUA
Key: 59.1

Exercise: # value lookup — system MS2 coat protein, readout apparent Kd, item AGGAAACAUGAGGAUCACCCAUGUGAGGAUAUACAAAAGAGCGAAAGAAGAAAUUAAUGUAGAAGGCACGUCAA
Key: 13.3

Exercise: # value lookup — system MS2 coat protein, readout apparent Kd, item CUUCAGGCGGAGGAUAUCUUACAGUUAUCGUACAGAGAAGGCCGCACAUGAGGAUCACCCAUGUCAGGCGACUU
Key: 162

Exercise: # value lookup — system MS2 coat protein, readout apparent Kd, item CCAGUUGACUAGAAGGCAAUACGGAUAAAGUAACUGACCACAUGAGGAUCACCCAUGUAUCCCAUUGAGGAUAUAGCAUUAAGU
Key: 25.8

Exercise: # value lookup — system MS2 coat protein, readout apparent Kd, item GGGUGAAGUGAGAAGGUUGGUGCUAGUUAAUUCAAAGGAUAUCAUUACUACGACAUGAGGAUCACCCAUGUAGCUGUACUGGAA
Key: 12.4

Exercise: # value lookup — system MS2 coat protein, readout apparent Kd, item UCCUUACACAUGAGGAUCACCCAUGUAUCCACAGGUUGAGGGCAGGAUAUACAUAAUUUGACCUUGUAGAAGGGCCUGACAAAA
Key: 103

Exercise: # value lookup — system MS2 coat protein, readout apparent Kd, item CUGAAGUCUGACCCUCGAAACAUGAGGAUCACCCAUGUAGUCAGAAGGCGAUUGUGAGCAGGAAUCGAGGAUAUGAACUAGUUU
Key: 10

Exercise: # value lookup — system MS2 coat protein, readout apparent Kd, item CACAAGUCGUAGGAUAUCACCACAAAUAGCUGCUGAGAAGGACGGACAUGAGGAUCACCCAUGUGUUCCGCAAU
Key: 23.8

Exercise: # value lookup — system MS2 coat protein, readout apparent Kd, item GUGAAACAUGAGGAUCACCCAUGUUAGGAUAUAGGUAACCUAGUACAUGAUCUGCUGGCUAGAAGGAACUGGAU
Key: 11.5

Exercise: # value lookup — system MS2 coat protein, readout apparent Kd, item AUGUCGGCAGGAUAUACUGGAACUUGACCCGUGAACACGAUACAUGAGGAUCACCCAUGUAGAAGGGCCUAAAA
Key: 43.4

Exercise: # value lookup — system MS2 coat protein, readout apparent Kd, item CCGGAAUUGCAGGAUAUACGCAAACCACAUGCUGUAGAAGGGCAAACAUGAGGAUCACCCAUGUGGUCGAGCAG
Key: 17.9

Exercise: # value lookup — system MS2 coat protein, readout apparent Kd, item GAUUGGCUAGGAUAUACAGUGUCUAAGUCGACACCGUGAUAACAUGAGGAUCACCCAUGUAGAAGGAGCACAAA
Key: 11.4

Exercise: # value lookup — system MS2 coat protein, readout apparent Kd, item UCUAGUGCAUAGGAUAUCAUGGUUCAUUAGUACUGAGAAGGAUGCACAUGAGGAUCACCCAUGUUCUCUGACAG
Key: 80.5

Exercise: # value lookup — system MS2 coat protein, readout apparent Kd, item GUUUUGGUACGAGGAUAUAAUGCCCUUGGAGAGUUAGAAGGCGUACGGGCUGUCCAUUAGAUACAUGAGGAUCACCCAUGUGAG
Key: 12.2

Exercise: # value lookup — system MS2 coat protein, readout apparent Kd, item UAACCGUGAGGAUAUACAUGAGGAUCACCCAUGUGGUUUUGCUGCGCACAUACUUUAUGUAGAAGGCACAACUG
Key: 59.9

Exercise: # value lookup — system MS2 coat protein, readout apparent Kd, item UAAUGCAUAACAUGAGGAUCACCCAUGUAGUAAAAUGGUGGUUAGGAUAUAGCACGUGAAUCGACCUAGAAGGAACGUCCUUAC
Key: 30

Exercise: # value lookup — system MS2 coat protein, readout apparent Kd, item CGGAUUUGGUAGAAGGUUUCGUCACAUAUCGCAAAAGGAUAUACUAAACAUGAGGAUCACCCAUGUGUCGUGGGAGUUAAUUCA
Key: 70.5

Exercise: # value lookup — system MS2 coat protein, readout apparent Kd, item CAGGGACAUGAGGAUCACCCAUGUAAGGAUAUGCCCAAAAGAGCGACUACUAAAGGAGGCAGAAGGUACGAACG
Key: 31.6

Exercise: # value lookup — system MS2 coat protein, readout apparent Kd, item UACCUUAGCAACAUGAGGAUCACCCAUGUUUGGUGGCGAAUUAGAAGGGACAGCAUUUAUACAAGUCAGGAUAUAAUUUAGGGA
Key: 11.6

Exercise: # value lookup — system MS2 coat protein, readout apparent Kd, item GAUCAACAUGAGGAUCACCCAUGUCAGGAUAUGCAGACAGUCUUUACGUCAGUCGUAAGCAGAAGGGACUACGG
Key: 69.6

----------
system: MS2 coat protein; test: apparent Kd, MS2 coat protein; higher = weaker binding; RNA-MaP array; details: ligand present: flavin mononucleotide; designed as: ON switch for flavin mononucleotide
measured-parameter: apparent Kd (nM)
// return numeric value only (unit: nM, not printed)

Exercise: What value of apparent Kd has been reported for the following sequence? AGUUUUAUCGUGUAGGAUAUGGGAUAAUCAACAUGAGGAUCACCCAUGUCAUGAGUGACAAGCGACCAGAAGGACACCAAUACAAC
Key: 55.8

Exercise: What value of apparent Kd has been reported for the following sequence? AUUUAGCAUAUACAUGAGGAUCACCCAUGUCUGAUACAUAGUAGAAGGCCCGUUAAGACAUACAGGGAGGAUAUACGUACAUGU
Key: 9.85

Exercise: What value of apparent Kd has been reported for the following sequence? CUCAAUUAAGAGAAGGUUACUUGUGUUACGUGUAAAGGAUAUCUAAGCGCUAGGCACAUGAGGAUCACCCAUGUUCCUGCCUUU
Key: 6.03

Exercise: What value of apparent Kd has been reported for the following sequence? UUCUCACAUGAGGAUCACCCAUGUCUAAGGAGUACAGGAUAUGUGCCGUGAUUUUCGAGUACAGAAGGGUACAAUU
Key: 33.6

Exercise: What value of apparent Kd has been reported for the following sequence? AAUGGAAGGGAGAAGGCACGCUCUGUCGAACCGUGAGGAUAUCCAUCGGGUAAUAUACAUGAGGAUCACCCAUGUGGCGUCCAG
Key: 14.6

Exercise: What value of apparent Kd has been reported for the following sequence? AAGGUCCAAGAGAAGGCGCUCAUGGGAUCAAGACAUGAGGAUCACCCAUGUUGGCGCAGCACAAGCGAGGAUAUCUCCACCGGC
Key: 330

Exercise: What value of apparent Kd has been reported for the following sequence? UUAGAAUACUAAGGAUAUGAUUAUGGCGCACCGCUGUCCGGUGUACAUGAGGAUCACCCAUGUAAUCAGAAGGUAGACUUGUCC
Key: 8.91
